Give measured growth for each item. Keep answers brief.
System: SK-MEL-28 melanoma
Assay: NCI-60 one-dose screen, 48 h (100 = growth as untreated, 0 = no growth, -100 = all killed)
Details: 10 µM unless noted
This is part of a sample that, as a whole, favours compounds with a hit. Of some 83,000 tested, about 20% had one in any assay.
One number for each entry, in %.

INSERT INTO results (compound, value_units, value_measured) VALUES
  ('CN(C)CCCC(=O)Nc1ccc(Cn2nnc3c2C(=O)c2nnn(Cc4ccc(NC(=O)CCCN(C)C)cc4)c2C3=O)cc1', '%', 56.5),
  ('Cc1cc(Nc2nc(N3CCOCC3)nc3ccccc23)n[nH]1', '%', 72.2),
  ('OCCNCCNc1c2ccccc2nc2ccccc12', '%', 114),
  ('Cn1c2c(Cl)c(Cl)ccc2c2ccn3c(=O)c4ccccc4nc3c21', '%', 117),
  ('COc1ccc(CNc2nccnn2)cc1', '%', 97.7);

Quick request: growth for each listed item, please.
1. COc1ccc2nc3cc(Cl)ccc3c(N3CCN(c4nccc(NCc5ccccc5)n4)CC3)c2c1
2. CN1CCN(Cc2ccc(NC(=O)c3[nH]ncc3Nc3ncnc4c3CCC4)cc2)CC1
3. COc1cccc(-n2cc(-c3nc(Nc4cc(C)[nH]n4)c4ccccc4n3)nn2)c1

Result:
[80.7, 5.62, 64]

Quick request: growth for each listed item, please.
1. CN1Cc2c(cc(CN3CCCCC3)n2C)C(c2ccc(Br)cc2)C1 (stereo not given)
2. CSc1nc(NCCCNc2ccnc3cc(Cl)ccc23)cc(-c2ccccc2)n1

Result:
1. 54.3
2. -52.2
